# target: cAMP phosphodiesterase (Bos taurus)
# assay explanation: Inhibition of bovine heart cAMP-phosphodiesterase
observed property: IC50 (µM)

- compound: "CCN(CC)c1nc(NCC(O)c2ccc(O)c(CO)c2)c2cc(OC)c(OC)cc2n1.Cl (centres undefined)"
  target: "cAMP phosphodiesterase (Bos taurus)"
  observed property: "IC50"
  unit name: "µM"
  numeric value: 428
- compound: "CCN(CC)c1nc(NCC(O)c2cccc(O)c2)c2cc(OC)c(OC)cc2n1.Cl (centres undefined)"
  target: "cAMP phosphodiesterase (Bos taurus)"
  observed property: "IC50"
  unit name: "µM"
  numeric value: 610

[A] CCN(CC)c1nc(NCC(O)c2ccccc2)c2cc(OC)c(OC)cc2n1 (centres undefined)
[B] CCN(CC)c1nc(NCCc2ccccc2)nc2cc(OC)c(OC)cc12
Q) Sorting ascending by IC50, which comes first: A or B ? Your answer should be the label attached to the chosen record.
A) B
